# System: human Factor 11 mRNA
# protocol_description: Antisense inhibition of human Factor 11 in HepG2 cells, lipofectin, 75 nM (Example 1)
# Format: cell-based
# study_conditions: 75 nM antisense oligonucleotide, ~24 h, relative to untreated control cells, gapmers targeted to SEQ ID NO: 2
Strand notation (5' to 3'): a small letter for the sugar, then the base; units joined by * are phosphorothioate-linked, units joined directly phosphodiester-linked; [ ] holds rarer units or linkages, { } end groups; capitals alone tell only the bases. e = 2'-O-(2-methoxyethyl) (MOE); [5mC] = 5-methylcytosine; d = 2'-deoxy (DNA)
observable: % inhibition (%)
Reply numerically in %, unit not repeated.

For orientation, consider the following solved cases.
substance | measurement
413512 (antisense eA*eT*eA*eT*eT*dT*d[5mC]*dA*dA*dA*dA*dT*d[5mC]*d[5mC]*dA*eG*eT*eA*eT*eG) [compound 413512] | 39
413520 (antisense eG*e[5mC]*eT*e[5mC]*eT*dG*dA*dG*dA*dG*dT*dT*d[5mC]*d[5mC]*dA*eA*eT*eT*e[5mC]*eA) [compound 413520] | 52
413521 (antisense e[5mC]*eT*eG*eG*eG*dA*dA*dG*dG*dT*dG*dA*dA*dT*dT*eT*eT*eT*eA*eG) [compound 413521] | 62
413531 (antisense eG*eT*eA*e[5mC]*eA*d[5mC]*dT*d[5mC]*dT*dG*d[5mC]*dA*dA*d[5mC]*dA*eG*eA*eA*eG*e[5mC]) [compound 413531] | 47
413525 (antisense eG*eT*eA*eT*eA*dA*dA*dT*dG*dT*dG*dT*d[5mC]*dA*dA*eA*eT*eT*eA*eA) [compound 413525] | 43

Lookup: Provide value of % inhibition for this record tested with human Factor 11 mRNA: 413530 (antisense eA*eT*e[5mC]*eT*eT*dG*dT*dA*dA*dT*dT*dA*d[5mC]*dA*d[5mC]*eA*e[5mC]*e[5mC]*e[5mC]*e[5mC]) [compound 413530]
Found: 27

----------
Catalogue of Urine protein/creatinine ratio readings, one per entry.
# protocol_description: Tolerability in Sprague-Dawley rats: kidney function, urine protein/creatinine (Example 35)
# study_conditions: Sprague Dawley rats; Before antisense oligonucleotide treatment

For orientation, consider the following solved cases.
substance | observable | measurement
416838 (antisense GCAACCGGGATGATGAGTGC; 5-10-5 gapmer, further chemistry not given here) [compound 416838] | Urine protein/creatinine ratio | 1.2
416892 (antisense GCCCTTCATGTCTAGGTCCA; 3-14-3 chimeric gapmer, further chemistry not given here) [compound 416892] | Urine protein/creatinine ratio | 0.8
417002 (antisense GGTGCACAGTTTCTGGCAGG; 2-13-5 gapmer chemistry, further chemistry not given here) [compound 417002] | Urine protein/creatinine ratio | 1.0

Then this substance:
Lookup: Which Urine protein/creatinine ratio is listed for 416825 (antisense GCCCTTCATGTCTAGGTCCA; 5-10-5 gapmer, further chemistry not given here) [compound 416825] ?
Found: 1.1

----------
# Tested on: human Factor 11 mRNA
# protocol_description: Antisense inhibition of human Factor 11 in HepG2 cells by microwalk gapmers, lipofectin, 75 nM (Example 3)
# Format: cell-based
# study_conditions: HepG2 cells, lipofectin, gapmers targeted to nucleobases 1275 to 1318 of SEQ ID NO: 1
Strand notation (5' to 3'): a small letter for the sugar, then the base; units joined by * are phosphorothioate-linked, units joined directly phosphodiester-linked; [ ] holds rarer units or linkages, { } end groups; capitals alone tell only the bases. e = 2'-O-(2-methoxyethyl) (MOE); [5mC] = 5-methylcytosine; d = 2'-deoxy (DNA)
Catalogue of % inhibition readings, one per entry.
Reply numerically in %, unit not repeated.

For orientation, consider the following solved cases.
substance | measurement
416999 (antisense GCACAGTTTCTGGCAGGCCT; 2-13-5 gapmer chemistry, further chemistry not given here) [compound 416999] | 92
417004 (antisense eT*eT*dG*dG*dT*dG*d[5mC]*dA*d[5mC]*dA*dG*dT*dT*dT*d[5mC]*eT*eG*eG*e[5mC]*eA) [compound 417004] | 86
416851 (antisense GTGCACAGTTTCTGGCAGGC; 5-10-5 gapmer, further chemistry not given here) [compound 416851] | 88

Lookup: Which % inhibition is listed for 416933 (antisense eA*e[5mC]*eG*dG*d[5mC]*dA*dT*dT*dG*dG*dT*dG*d[5mC]*dA*d[5mC]*dA*dG*eT*eT*eT) [compound 416933] ?
Found: 92

Lookup: Which % inhibition is listed for 417017 (antisense eG*e[5mC]*dA*dG*d[5mC]*dG*dG*dA*d[5mC]*dG*dG*d[5mC]*dA*dT*dT*eG*eG*eT*eG*e[5mC]) [compound 417017] ?
Found: 82

Lookup: Which % inhibition is listed for 416849 (antisense eG*e[5mC]*eA*e[5mC]*eA*dG*dT*dT*dT*d[5mC]*dT*dG*dG*d[5mC]*dA*eG*eG*e[5mC]*e[5mC]*eT) [compound 416849] ?
Found: 88

Lookup: Which % inhibition is listed for 417014 (antisense eG*e[5mC]*dG*dG*dA*d[5mC]*dG*dG*d[5mC]*dA*dT*dT*dG*dG*dT*eG*e[5mC]*eA*e[5mC]*eA) [compound 417014] ?
Found: 87

----------
# study_conditions: mouse, in vivo, sc, 50 mg/kg
e = 2'-O-(2-methoxyethyl) (MOE); d = 2'-deoxy (DNA)
Catalogue of Cholesterol readings, one per entry.
Number first, unit second: that is the form wanted.

substance | observable | measurement
ISIS 416864: MOE gapmer, nucleobases 1275 to 1318 of SEQ ID NO: 1 (Table 8) (antisense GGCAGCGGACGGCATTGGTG; MOE gapmer, wing and gap sizes not given here) | Cholesterol | 152 mg/dL
ISIS 416860: MOE gapmer, nucleobases 1275 to 1318 of SEQ ID NO: 1 (Table 8) (antisense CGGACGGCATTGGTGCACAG; MOE gapmer, wing and gap sizes not given here) | Cholesterol | 152 mg/dL

Lookup: Which Cholesterol is listed for ISIS 416853: MOE gapmer, nucleobases 1275 to 1318 of SEQ ID NO: 1 (Table 8) (antisense TTGGTGCACAGTTTCTGGCA; MOE gapmer, wing and gap sizes not given here) ?
Found: 164 mg/dL

Lookup: Which Cholesterol is listed for ISIS 412224: 5-10-5 MOE gapmer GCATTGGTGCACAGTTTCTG (sugars from the 5' end e5 d10 e5, backbone and methylation of C not given here) ?
Found: 114 mg/dL

Lookup: Which Cholesterol is listed for ISIS 412223: 5-10-5 MOE gapmer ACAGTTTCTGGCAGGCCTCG (sugars from the 5' end e5 d10 e5, backbone and methylation of C not given here) ?
Found: 117 mg/dL

Lookup: Which Cholesterol is listed for ISIS 416856: MOE gapmer, nucleobases 1275 to 1318 of SEQ ID NO: 1 (Table 8) (antisense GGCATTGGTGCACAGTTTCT; MOE gapmer, wing and gap sizes not given here) ?
Found: 109 mg/dL

Lookup: Which Cholesterol is listed for ISIS 416857: MOE gapmer, nucleobases 1275 to 1318 of SEQ ID NO: 1 (Table 8) (antisense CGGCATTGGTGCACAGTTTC; MOE gapmer, wing and gap sizes not given here) ?
Found: 94 mg/dL

Lookup: Which Cholesterol is listed for ISIS 416850: MOE gapmer, nucleobases 1275 to 1318 of SEQ ID NO: 1 (Table 8) (antisense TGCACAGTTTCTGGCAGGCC; MOE gapmer, wing and gap sizes not given here) ?
Found: 142 mg/dL

----------
Catalogue of eosinophils readings, one per entry.
# protocol_description: Hematology assays in cynomolgus monkeys (Example 45)
# Format: in vivo
# study_conditions: day 36
Reply numerically in %, unit not repeated.

For orientation, consider the following solved cases.
substance | units_symbol | eosinophils
ISIS 416858: MOE gapmer, nucleobases 1275 to 1318 of SEQ ID NO: 1 (Table 8) (antisense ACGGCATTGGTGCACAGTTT; MOE gapmer, wing and gap sizes not given here) | % | 0.4
ISIS 417002: MOE gapmer, nucleobases 1275 to 1318 of SEQ ID NO: 1 (Table 8) (antisense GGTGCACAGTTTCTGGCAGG; MOE gapmer, wing and gap sizes not given here) | % | 0.2

Lookup: Which eosinophils is listed for ISIS 416850: MOE gapmer, nucleobases 1275 to 1318 of SEQ ID NO: 1 (Table 8) (antisense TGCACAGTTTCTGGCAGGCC; MOE gapmer, wing and gap sizes not given here) ?
Found: 1.7

Lookup: Which eosinophils is listed for ISIS 416864: MOE gapmer, nucleobases 1275 to 1318 of SEQ ID NO: 1 (Table 8) (antisense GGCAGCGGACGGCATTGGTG; MOE gapmer, wing and gap sizes not given here) ?
Found: 0.6

----------
# study_conditions: mouse, in vivo, sc, 50 mg/kg
e = 2'-O-(2-methoxyethyl) (MOE); d = 2'-deoxy (DNA)
observable: Lymphocyte (cells/μL)
Reply numerically in cells/μL, unit not repeated.

substance | Lymphocyte [cells/μL]
ISIS 413482: 5-10-5 MOE gapmer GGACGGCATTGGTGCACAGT (sugars from the 5' end e5 d10 e5, backbone and methylation of C not given here) | 5584
ISIS 416866: MOE gapmer, nucleobases 1275 to 1318 of SEQ ID NO: 1 (Table 8) (antisense CTGGCAGCGGACGGCATTGG; MOE gapmer, wing and gap sizes not given here) | 4621

Then this substance:
Lookup: Which Lymphocyte is listed for ISIS 416854: MOE gapmer, nucleobases 1275 to 1318 of SEQ ID NO: 1 (Table 8) (antisense ATTGGTGCACAGTTTCTGGC; MOE gapmer, wing and gap sizes not given here) ?
Found: 9375
